Assign Kd to each entry below.
Target: T1, human IL-2Rβ (human, UniProt P14784 27-240, limits assumed)
T1 construct: also called hIL-2Rβ; IL-2 receptor beta
T1 sequence (looked up): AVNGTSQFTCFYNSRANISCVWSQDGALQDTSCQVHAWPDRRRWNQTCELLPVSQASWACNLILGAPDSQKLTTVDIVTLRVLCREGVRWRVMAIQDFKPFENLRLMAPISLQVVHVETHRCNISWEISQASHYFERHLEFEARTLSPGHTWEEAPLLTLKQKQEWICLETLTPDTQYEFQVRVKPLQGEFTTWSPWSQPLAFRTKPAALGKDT
Test: SPR, steady state
Numbers only, in nM.

Reference set, count: 5
hIL-15 V49R/Q108K (ligand) NWVNVISDLKKIEDLIQSMHIDATLYTESDVHPSCKVTAMKCFLLELQRISLESGDASIHDTVENLIILANNSLSSNGNVTESGCKECEELEEKNIKEFLQSFVHIVKMFINTGGGGSGHHHHHHHHGGGLNDIFEAQKIEWHE    249
hIL-15 V49R/S29D (ligand) NWVNVISDLKKIEDLIQSMHIDATLYTEDDVHPSCKVTAMKCFLLELQRISLESGDASIHDTVENLIILANNSLSSNGNVTESGCKECEELEEKNIKEFLQSFVHIVQMFINTGGGGSGHHHHHHHHGGGLNDIFEAQKIEWHE    238
hIL-15 V49R/N72D (ligand) NWVNVISDLKKIEDLIQSMHIDATLYTESDVHPSCKVTAMKCFLLELQRISLESGDASIHDTVENLIILANDSLSSNGNVTESGCKECEELEEKNIKEFLQSFVHIVQMFINTGGGGSGHHHHHHHHGGGLNDIFEAQKIEWHE    101
hIL-15 V49R/D30F (ligand) NWVNVISDLKKIEDLIQSMHIDATLYTESFVHPSCKVTAMKCFLLELQRISLESGDASIHDTVENLIILANNSLSSNGNVTESGCKECEELEEKNIKEFLQSFVHIVQMFINTGGGGSGHHHHHHHHGGGLNDIFEAQKIEWHE    213
hIL-15 V49R/K11S (ligand) NWVNVISDLKSIEDLIQSMHIDATLYTESDVHPSCKVTAMKCFLLELQRISLESGDASIHDTVENLIILANNSLSSNGNVTESGCKECEELEEKNIKEFLQSFVHIVQMFINTGGGGSGHHHHHHHHGGGLNDIFEAQKIEWHE    453

Problem: Look up Kd for this binder: hIL-15 V49R/S29A (ligand) NWVNVISDLKKIEDLIQSMHIDATLYTEADVHPSCKVTAMKCFLLELQRISLESGDASIHDTVENLIILANNSLSSNGNVTESGCKECEELEEKNIKEFLQSFVHIVQMFINTGGGGSGHHHHHHHHGGGLNDIFEAQKIEWHE
Result: 274
